Sourced from PubChem BioAssay (NCATS)

Can you tell me activity, negative = inhibition for the items I'm about to list?
Assay: qHTS profiling for inhibitors of Plasmodium falciparum proliferation (AID 504749);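 further: 0% = DMSO vehicle and full inhibition = artemisinin control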
Conditions: P. falciparum in erythrocytes, SYBR Green DNA, 72 h; at 28.7 µM (top of the series); parasite line B
Description: NIH National Institute of Allergy and Infectious Diseases [NIAID] NIH Chemical Genomics Center [NCGC] […] Because mature erythrocytes lack DNA, only Plasmodium-derived DNA is detected. NCGC Assay Protocol Summary: The SYBR Green viability assay was adapted from a method described previously (Plouffe et al., 2008). […] The following morning, fluorescence intensity at 485(14) nm excitation and 535(25) nm emission wavelengths was measured on an EnVision (Perkin Elmer) plate reader. […]
Results filed as inconclusive are left out.
# unit: % | format: bare number

Prompt: Would you mind telling me what activity, negative = inhibition value was observed for COc1ccc(/C=N/NC(=O)c2ccncc2)cc1OC ?
Completion: 9.47

Prompt: Same for OC[C@H]1O[C@@H]2O[C@H]3[C@H](O)[C@@H](O)[C@@H](O[C@H]4[C@H](O)[C@@H](O)[C@@H](O[C@H]5[C@H](O)[C@@H](O)[C@@H](O[C@H]6[C@H](O)[C@@H](O)[C@@H](O[C@H]7[C@H](O)[C@@H](O)[C@@H](O[C@H]8[C@H](O)[C@@H](O)[C@@H](O[C@H]1[C@H](O)[C@H]2O)O[C@@H]8CO)O[C@@H]7CO)O[C@@H]6CO)O[C@@H]5CO)O[C@@H]4CO)O[C@@H]3CO
Completion: 8.53

Prompt: Input O=c1[nH]c(=O)n([C@H]2C[C@H](O)[C@@H](CO)O2)cc1F
Completion: -0.681

Prompt: How about O=C(O)P(=O)(O)O ?
Completion: -2.94

Prompt: Now the compound OC(C#CCN1CCCC1)(c1ccccc1)c1ccccc1
Completion: -24.9

Prompt: Further, for CCNC(=O)NCc1cccc(Cl)c1 ?
Completion: 3.44

Prompt: How about CC(=O)NC(=O)c1ccccc1O ?
Completion: 7.59

Prompt: Can you check NC(=O)C1(N2CCCCC2)CCN(CCCC(=O)c2ccc(F)cc2)CC1 next?
Completion: 10.8

Prompt: Record: CC(C)Nc1cccnc1N1CCN(C(=O)c2cc3cc(NS(C)(=O)=O)ccc3[nH]2)CC1
Completion: 24

Prompt: // same read-out, input: FC1(F)C(F)(F)C(F)(F)C2(F)C(F)(F)C(F)(F)C(F)(F)C(F)(F)C2(F)C1(F)F (stereo not given)
Completion: 12.9

Prompt: Also Cc1ncc(CO)c(C=O)c1O ?
Completion: 9.9

Prompt: Also need COc1ccc(CCN(C)CCCN2CCc3cc(OC)c(OC)cc3CC2=O)cc1OC , thanks.
Completion: -7.04

Prompt: Now give it for CCOC(=O)[C@H](CCc1ccccc1)N[C@@H](C)C(=O)N1[C@H](C(=O)O)C[C@H]2CCCC[C@@H]21 too.
Completion: 4.83

Prompt: One more compound: CCC1Nc2cc(Cl)c(S(N)(=O)=O)cc2S(=O)(=O)N1 (stereo not given)
Completion: 6.74

Prompt: Queued: C=CCN1CCc2nc(N)sc2CC1
Completion: 2.41

Prompt: CN1CCN(C2=Nc3cc(F)ccc3Cc3ccccc32)CC1 , same question.
Completion: -0.186

Prompt: Cc1cccc(C)c1NC(=O)CN1CCCC1 , same question.
Completion: 5.99

Prompt: Try this compound next: CCN(CC)CCNC(=O)COc1ccc(OC)cc1
Completion: 3.1

Prompt: Also check CC(C)Cn1cnc2c1c(=O)n(C)c(=O)n2C
Completion: 1.13

Prompt: Next compound up: CCC(CC)(CC(=O)Nc1cccc(/C=C/c2nc(C3CCC3)cs2)c1)C(=O)O
Completion: -0.894
